Property: melting point; scope: individual compounds
outcome.measure: melting point (°C)

>>> df
                                   compound  result
0                      c1cc2c3c(cccc3c1)CC2    93.4
1                   CC(C)(C)OOC(=O)c1ccccc1       8
2  COC(=O)N/N=C/c1c[n+]([O-])c2ccccc2[n+]1[O-]     240
3  FC(F)(F)C(F)(F)C(F)(F)C(F)(F)C(F)(F)C(F)(F)C(F)(F)F     -78
4            C=C(C)c1cc(=O)c(O)ccc1CC=C(C)C    71.5
5                  CC(=O)c1ccc(C(F)(F)F)cc1      31
6                                    C=CC#N   -83.5
7                         C=CC(=O)NC(C)(C)C     128

----------
// thresholds for melting point classes: bin 1 = under 70 °C, bin 2 = from 70 °C up to 100 °C, bin 3 = 100 °C and over

>>> print(df.to_string())
                                    compound  class_label
 0                         Oc1ccc2c(c1)CCCC2        bin 1
 1  CN1C(C(=O)Nc2ccccn2)=C(O)c2ccccc2S1(=O)=O        bin 3
 2               O=C1c2ccccc2C(=O)C1c1ccccc1        bin 3
 3         COC(=O)c1ccc(Cl)c([N+](=O)[O-])c1        bin 2
 4                     C(CC1CCNCC1)CC1CCNCC1        bin 1
 5  O=[N+]([O-])OCC(CO[N+](=O)[O-])O[N+](=O)[O-]        bin 1
 6    CCn1cc(C(=O)O)c(=O)c2cnc(N3CCNCC3)nc21        bin 3
 7         O=C1NC(=O)c2cc([N+](=O)[O-])ccc21        bin 3
 8         Clc1c(Cl)c(Cl)c(C(Cl)Cl)c(Cl)c1Cl        bin 3
 9  CC(C)OC(=O)c1cc(C(=O)OC(C)C)cc([N+](=O)[O-])c1        bin 1
10                             CCCS(=O)(=O)O        bin 1
11                         CCCCCCCCCCCC(N)=O        bin 3
12           O=[N+]([O-])c1ccc(Oc2ccccc2)cc1        bin 1
13                      O=Nc1c(O)ccc2ccccc12        bin 3
14     CCN(CC)CCOC(=O)C(O)(c1ccccc1)c1ccccc1        bin 1
15  Clc1ccc(CSC(Cn2cncn2)=Nc2ccc(Cl)cc2Cl)cc1        bin 2
16                    C/C(=N\O)C(=O)c1ccccc1        bin 3
17                        CCCCCCCCCCc1ccccc1        bin 1
18                              CN(C)CC(=O)O        bin 3
19                   Cc1cc(C(C)(C)C)cc(C)c1O        bin 2
20  COc1ccc2c(c1O)-c1c3c(cc4c1[C@H](C2)N(C)CC4)OCO3        bin 3
21  COc1cccc(C(=O)NN(C(=O)c2cc(C)cc(C)c2)C(C)(C)C)c1C        bin 3
22              COc1ccc(OC)c([N+](=O)[O-])c1        bin 2
23                       c1ccc(-c2ccncc2)nc1        bin 1
24           O=c1[nH]c2ccccc2c(-c2ccccc2)c1O        bin 3

----------
outcome.measure: boiling point (°C)

>>> df
                                    compound  result
 0     O=C1CCCC1C1CCCC1 (stereo unspecified)     232
 1                            COC(=O)c1ccco1     181
 2                    CC(=O)c1cc(C(C)C)ccc1C     250
 3                               FC(F)(F)CBr      26
 4                             ClC(Cl)(Cl)Br     105
 5                          CCCCCCCCCCCCCCCN     308
 6            FC(F)(F)C(F)(F)C(F)(F)C(F)(F)F    -1.9
 7                             CCN(CC)CCOCCO     222
 8                        CCN(CC)c1ccc(N)cc1     261
 9                         CC(C)(C)CC(C)(C)C     122
10                                CC(C)COCCO     160
11                           Cc1ccc(CC#N)cc1     242
12                   Cc1ccc([N+](=O)[O-])cc1     238
13          CC(C)COC(=O)c1ccccc1C(=O)OCC(C)C     296
14                            CCOS(=O)(=O)Cl     152
15                   Nc1ccc([N+](=O)[O-])cc1     332
16                           O=Cc1ccc(Cl)cc1     214
17  CCC(CC)Nc1c([N+](=O)[O-])cc(C)c(C)c1[N+](=O)[O-]     330
18                                 ClCCOCCCl     178
19                               ClCCCOCCCCl     216
20                           CC(C)c1ccccc1Cl     191
21         O=CC1CC=CCC1 (stereo unspecified)     105
22  CC1(C)C2CC3OC3(C)C1C2 (stereo unspecified)     185
23                          CCOc1cccc(OCC)c1     235
24                          BrCc1ccc(CBr)cc1     245
25                             Sc1cccc(Cl)c1     206
26            CCOCC(C)O (stereo unspecified)     131
27      CC(C)(C)OCC1CO1 (stereo unspecified)     152
28                             C=CC(=O)OCCCC     145
29                             O=COCc1ccccc1     203
30                                   O=CCCCl     130
31                                  CCN(O)CC     133
32                          CCO[Si](C)(C)OCC     114
33                   FC(F)(F)C(F)(F)C(F)(F)I    41.2
34         CC(C)[C@]12CC(=O)[C@H](C)[C@H]1C2     203
35                            NCc1ccc(Br)cc1     250

----------
outcome.measure: boiling point (°C)

>>> df
                                    molecule  result
 0  CCC(C)c1cc([N+](=O)[O-])cc([N+](=O)[O-])c1O (configuration not stated)     332
 1    CC(=O)C(C)O (configuration not stated)     143
 2                         O=C(O)CCCCCC(=O)O     342
 3                            CC(=O)OCCC(C)C     142
 4                        FC(F)(F)c1ccccc1Cl     152
 5                    Cc1c(F)c(F)c(C)c(F)c1F     144
 6                        CC(=O)Oc1cccc(O)c1     283
 7                           CCN(C(C)C)C(C)C     126
 8  CC1CCCC(Br)C1 (configuration not stated)     181
 9               Cc1ccc(Cl)c([N+](=O)[O-])c1     261
10                                    CC1CC1     0.7
11                       Oc1c(F)c(F)cc(F)c1F     140
12  CCC(C(C)=O)C(=O)OC (configuration not stated)     182
13                              CC1(C)CCCCC1     120
14                      Oc1ccc(Cc2ccccc2)cc1     322
15                          CCCC[N+](=O)[O-]     153
16                          CCOC(=O)c1ccccc1     212
